biological target: MMP-2 (Homo sapiens, UniProt P08253); construct: endogenous in cells; host or cells: cultured human dermal fibroblasts (secreted into conditioned medium); experiment: Quantitative fluorescence assay for matrix metalloproteinases (cleavage of Mca-Pro-Leu-Gly-Leu-Dpa-Ala-Arg-NH2); format: biochemical; details: bei 10 µM
Sequence (P08253 110-660): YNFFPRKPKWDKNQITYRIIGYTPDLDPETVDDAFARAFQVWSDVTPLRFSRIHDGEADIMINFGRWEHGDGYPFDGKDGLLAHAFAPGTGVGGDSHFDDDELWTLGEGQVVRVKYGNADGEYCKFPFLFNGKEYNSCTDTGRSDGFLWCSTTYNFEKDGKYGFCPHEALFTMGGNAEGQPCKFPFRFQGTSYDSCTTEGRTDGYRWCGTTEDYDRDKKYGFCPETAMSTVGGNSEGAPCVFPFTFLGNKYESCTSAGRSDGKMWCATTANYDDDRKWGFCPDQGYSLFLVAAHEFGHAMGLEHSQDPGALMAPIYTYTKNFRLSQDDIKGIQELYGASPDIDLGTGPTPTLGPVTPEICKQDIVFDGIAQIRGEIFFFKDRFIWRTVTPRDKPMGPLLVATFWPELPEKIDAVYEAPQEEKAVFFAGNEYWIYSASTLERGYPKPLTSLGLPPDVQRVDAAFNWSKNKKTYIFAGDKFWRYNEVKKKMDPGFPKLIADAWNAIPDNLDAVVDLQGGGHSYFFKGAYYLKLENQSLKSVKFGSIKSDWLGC
PROPERTY: MMP-2 Hemmung (% Hemmung bei 10 µM)

molecule="O=c1[nH]c2sc3c(c2c(=O)n1CC(S)CS)CCCC3 (racemic)" observed_result=52
molecule="O=c1[nH]c2ccccc2c(=O)n1CC(S)CS (racemic)" observed_result=70
molecule="Cc1cccc2[nH]c(=O)n(CC(S)CS)c(=O)c12 (racemic)" observed_result=50
molecule="O=c1[nH]c2cc(Cl)ccc2c(=O)n1CC(S)CS (racemic)" observed_result=90
molecule="O=c1[nH]c2ccc(Cl)cc2c(=O)n1CC(S)CS (racemic)" observed_result=50

====

target: katalytische Domäne der MMP-3 (Homo sapiens); construct: Die katalytische Domäne der humanen MMP-3 wurde nach den Angaben in folgender Publikation kloniert; made in house; assay: Quantitative fluorescence assay for matrix metalloproteinases (cleavage of Mca-Pro-Leu-Gly-Leu-Dpa-Ala-Arg-NH2); assay type: biochemical; settings: bei 10 µM
Sequence (P08254 100-272 limits assumed): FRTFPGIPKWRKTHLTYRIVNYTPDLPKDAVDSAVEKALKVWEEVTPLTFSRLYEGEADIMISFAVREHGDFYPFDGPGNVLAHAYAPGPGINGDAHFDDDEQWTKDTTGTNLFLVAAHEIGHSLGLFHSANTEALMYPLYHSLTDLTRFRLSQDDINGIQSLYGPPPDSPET
PROPERTY: MMP-3 Hemmung (% Hemmung bei 10 µM)

compound="O=c1[nH]c2cc(Cl)ccc2c(=O)n1CC(S)CS (racemic) [Beispiel 3]" property="MMP-3 Hemmung" observed_result=97
compound="O=c1[nH]c2ccc(Cl)cc2c(=O)n1CC(S)CS (racemic) [Beispiel 4]" property="MMP-3 Hemmung" observed_result=15
compound="O=c1[nH]c2ccccc2c(=O)n1CC(S)CS (racemic) [Beispiel 1]" property="MMP-3 Hemmung" observed_result=70
compound="Cc1cccc2[nH]c(=O)n(CC(S)CS)c(=O)c12 (racemic) [Beispiel 5]" property="MMP-3 Hemmung" observed_result=90
compound="O=c1[nH]c2sc3c(c2c(=O)n1CC(S)CS)CCCC3 (racemic) [Beispiel 10]" property="MMP-3 Hemmung" observed_result=55

====

Molecular target: MMP-9 (Homo sapiens)
Construct: Das latente Enzym wird durch 30 - 60 min; Inkubation bei 37°C mit 1/100 Vol. Trypsin (10 mg/ml) aktiviert; from tissue; host or cells: human buffy coat (blood leukocytes)
Sequence (P14780 107-707 limits assumed): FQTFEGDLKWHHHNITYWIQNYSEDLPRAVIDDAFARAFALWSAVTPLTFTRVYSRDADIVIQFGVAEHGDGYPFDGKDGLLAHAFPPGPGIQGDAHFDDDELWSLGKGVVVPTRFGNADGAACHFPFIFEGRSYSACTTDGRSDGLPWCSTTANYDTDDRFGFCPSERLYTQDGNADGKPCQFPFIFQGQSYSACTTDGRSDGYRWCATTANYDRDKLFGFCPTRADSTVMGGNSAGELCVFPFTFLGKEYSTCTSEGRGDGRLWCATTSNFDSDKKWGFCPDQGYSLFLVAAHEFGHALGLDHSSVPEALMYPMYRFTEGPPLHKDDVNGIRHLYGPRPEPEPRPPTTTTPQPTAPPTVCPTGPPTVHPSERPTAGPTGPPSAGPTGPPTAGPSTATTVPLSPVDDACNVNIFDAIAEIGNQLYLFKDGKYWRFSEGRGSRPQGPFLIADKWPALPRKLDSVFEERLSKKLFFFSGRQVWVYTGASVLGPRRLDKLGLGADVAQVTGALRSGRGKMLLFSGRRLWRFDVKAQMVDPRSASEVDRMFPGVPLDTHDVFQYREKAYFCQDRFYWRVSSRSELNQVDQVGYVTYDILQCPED
Assay: Quantitative fluorescence assay for matrix metalloproteinases (cleavage of Mca-Pro-Leu-Gly-Leu-Dpa-Ala-Arg-NH2)
Type: biochemical
Settings: bei 10 µM
Description: Native MMP-9 wurde reproduzierbar und in guter Ausbeute und Reinheit aus humanem Buffy Coat gewonnen. Hierzu wird Buffy Coat mit 10% (v/v) Triton X-100 auf eine Endkonzentration von 0,4% gebracht, 30 min. auf Eis geschüttelt und dann 1 Vol. 2-fach Bindungspuffer (40 mM Tris-HCI pH 7,5, 10 mM CaCl2, 1 M NaCI, 0,2% (v/v) Triton X-100) hinzugefügt und weitere 30 min. auf Eis geschüttelt. Die Lösung wird 15 min. bei 16 000 Upm an einem SS-34 Rotor bei 4°C abzentrifugiert und über Glaswolle filtriert. […]
Reported MMP-9 Hemmung values for the following compounds.
PROPERTY: MMP-9 Hemmung (% Hemmung bei 10 µM)

compound="O=c1[nH]c2cc(Cl)ccc2c(=O)n1CC(S)CS (racemic)" experimental_system="MMP-9 (Homo sapiens)" property="MMP-9 Hemmung" observed_result=83
compound="Cc1cccc2[nH]c(=O)n(CC(S)CS)c(=O)c12 (racemic)" experimental_system="MMP-9 (Homo sapiens)" property="MMP-9 Hemmung" observed_result=70
compound="O=c1[nH]c2sc3c(c2c(=O)n1CC(S)CS)CCCC3 (racemic)" experimental_system="MMP-9 (Homo sapiens)" property="MMP-9 Hemmung" observed_result=68
compound="O=c1[nH]c2ccc(Cl)cc2c(=O)n1CC(S)CS (racemic)" experimental_system="MMP-9 (Homo sapiens)" property="MMP-9 Hemmung" observed_result=50
compound="CC(S)(CS)Cn1c(=O)[nH]c2ccccc2c1=O (racemic)" experimental_system="MMP-9 (Homo sapiens)" property="MMP-9 Hemmung" observed_result=10
compound="O=c1[nH]c2ccccc2c(=O)n1CC(S)CS (racemic)" experimental_system="MMP-9 (Homo sapiens)" property="MMP-9 Hemmung" observed_result=70
compound="Cc1cccc2c(=O)n(CC(S)CS)c(=O)[nH]c12 (racemic)" experimental_system="MMP-9 (Homo sapiens)" property="MMP-9 Hemmung" observed_result=55
